The origin of these recorded values is ChEMBL document CHEMBL3886401.

- tgt: Fibroblast growth factor receptor 1 (Homo sapiens)
- Sequence (P11362 whole entry, the tested form may be a part): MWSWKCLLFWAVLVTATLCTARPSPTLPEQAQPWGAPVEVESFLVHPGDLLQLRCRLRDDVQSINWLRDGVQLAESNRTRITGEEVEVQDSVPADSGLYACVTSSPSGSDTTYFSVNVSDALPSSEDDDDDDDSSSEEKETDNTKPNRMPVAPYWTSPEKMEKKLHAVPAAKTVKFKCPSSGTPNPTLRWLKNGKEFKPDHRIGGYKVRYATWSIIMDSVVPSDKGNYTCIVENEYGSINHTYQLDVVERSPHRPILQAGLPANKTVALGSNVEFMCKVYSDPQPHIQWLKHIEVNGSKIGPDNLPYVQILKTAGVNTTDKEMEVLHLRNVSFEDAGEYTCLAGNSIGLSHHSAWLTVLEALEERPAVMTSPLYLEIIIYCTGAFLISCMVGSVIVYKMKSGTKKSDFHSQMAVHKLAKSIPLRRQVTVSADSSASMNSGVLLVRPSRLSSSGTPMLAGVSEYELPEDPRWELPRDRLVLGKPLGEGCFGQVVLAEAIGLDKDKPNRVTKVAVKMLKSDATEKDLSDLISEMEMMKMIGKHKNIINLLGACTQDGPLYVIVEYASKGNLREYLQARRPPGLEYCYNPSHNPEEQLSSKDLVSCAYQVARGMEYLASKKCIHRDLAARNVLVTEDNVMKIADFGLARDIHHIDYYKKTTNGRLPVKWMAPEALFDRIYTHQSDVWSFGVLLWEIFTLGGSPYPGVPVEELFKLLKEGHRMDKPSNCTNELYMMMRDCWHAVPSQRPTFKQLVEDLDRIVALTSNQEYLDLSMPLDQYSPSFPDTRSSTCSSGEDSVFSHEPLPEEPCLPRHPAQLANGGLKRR
- assay-summary: High ATP Kinase Assay: For the assay, 50 nl of each stock solution of the test compound in DMSO was pipetted into a black, low-volume 384-well microtiter plate (Greiner Bio-One, Frickenhausen, Germany) 2 Î¼l of a solution of the above FGFR-1 fusion protein in aqueous assay buffer [8 mM MOPS pH 7.0, 10 mM magnesium acetate, 1.0 mM dithiothreitol, 0.05% (w/v) bovine serum albumin (BSA), 0.07% (v/v) …
Recorded IC50 by entry

{"chemical-structure": "COCc1c(CN2CCNC(=O)C2)c(-c2cc3cc(C)cc(OC)c3s2)c2c(N)ncnn12", "unit-abbrev": "nM", "IC50": 3.9}
{"chemical-structure": "COCc1c(-c2cc3cc(C)cc(OC)c3s2)c2c(N)ncnn2c1C#N", "unit-abbrev": "nM", "IC50": 55.3}
{"chemical-structure": "COc1cc(C)cc2cc(-c3c(CNC(C)=O)c(CNC(C)=O)n4ncnc(N)c34)sc12", "unit-abbrev": "nM", "IC50": 1.4}
{"chemical-structure": "CCOCc1c(CN2CCNC(=O)C2)c(-c2cc3cc(C)cc(OC)c3s2)c2c(N)ncnn12", "unit-abbrev": "nM", "IC50": 8}
{"chemical-structure": "CCOCc1c(-c2cc3cc(C)cc(OC)c3s2)c2c(N)ncnn2c1C#N", "unit-abbrev": "nM", "IC50": 39.1}
